Measured values drawn from patent US7193033B2 for this set.

Target: GPR8 (Homo sapiens, UniProt P48146)
Construct: expressed in transfected cells
Sequence (P48146 whole entry): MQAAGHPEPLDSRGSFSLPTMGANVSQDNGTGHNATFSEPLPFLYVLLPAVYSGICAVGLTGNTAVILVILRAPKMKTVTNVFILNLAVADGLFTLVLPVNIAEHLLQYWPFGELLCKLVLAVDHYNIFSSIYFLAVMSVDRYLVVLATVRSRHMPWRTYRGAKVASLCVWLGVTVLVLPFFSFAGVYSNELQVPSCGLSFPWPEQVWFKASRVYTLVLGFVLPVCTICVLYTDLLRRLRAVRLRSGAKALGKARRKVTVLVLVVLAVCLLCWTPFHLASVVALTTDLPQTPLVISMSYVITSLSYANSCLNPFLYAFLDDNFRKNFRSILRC
Assay: Receptor binding test using [125I-Tyr10]-hGPR8L (1–23) and GPR8-expressed CHO cell membrane fraction
Settings: inhibition of [125I-Tyr10]-hGPR8L (1–23) binding; membrane fraction 5 μg/ml
Ends that are not written are not given here.
MEASURED PARAMETER: IC50 (nM)
Dear colleague, please return just the value in nM, with no unit written.

Query: Form field: IC50 recorded for H-WYKHVASPRYHTVGRAAGLL [hGPR8L(1–20)] with GPR8 (Homo sapiens, UniProt P48146) (enter value)
Response: 0.2
